# Read-out: Monokine induced gamma interferon (MIG), CXCL9 (gene 4283)
# PROTOCOL_TEXT: BSK_SAg_MIG: BioMAP Diversity Plus: SAg Assay for Monokine induced gamma interferon (MIG) Biomarker Activity (AID 2283092)
# TEST_CONDITIONS: primary human HUVEC with PBMC; actives raise or lower the signal
Active and inactive are the calls of the source. How the source made its calls: active means hit-call score of the fitted dose curve at least 0.9, where 1 is the maximum; inactive means score below 0.9.
PROPERTY_MEASURED: outcome

Some compounds with recorded outcome:
INSERT INTO assay_data (molecule, property_measured, value_measured) VALUES
  ('CCOC(=O)C1=NOC(c2ccccc2)(c2ccccc2)C1', 'outcome', 'inactive'),
  ('CC1(C)CC(O)CC(C)(C)N1[O]', 'outcome', 'inactive'),
  ('C[N+](C)(C)CCCNS(=O)(=O)C(F)(F)C(F)(F)C(F)(F)C(F)(F)C(F)(F)C(F)(F)C(F)(F)C(F)(F)F', 'outcome', 'inactive'),
  ('CCCCCCC=O', 'outcome', 'inactive'),
  ('CC=C(C)C(C)=O', 'outcome', 'inactive'),
  ('CCCCCCCCCCCC(C)=O', 'outcome', 'inactive'),
  ('Fc1ccc(Br)cc1', 'outcome', 'inactive'),
  ('Cc1ccc([N+](=O)[O-])cc1N', 'outcome', 'inactive'),
  ('O=C1CCCCCCCCCCCN1', 'outcome', 'inactive'),
  ('C=CC(=O)NCOCCCC', 'outcome', 'inactive');

Provide outcome for all items below, preserving their order.
1. COc1ccc(C(=O)c2ccccc2)c(O)c1
2. CCOC(=O)/C=C\C(=O)OCC
3. CCCCCCCCCCCC(=O)N(C)CC(=O)O
4. CCCCCCCO
5. CCCCCC1=CCCC1=O

Output:
inactive
inactive
inactive
inactive
inactive

* * *

# MEASURED_ON: Signal transducer and activator of transcription 3 (Homo sapiens)
# PROTOCOL_TEXT: ATG_STAT3_CIS: Attagene CIS-FACTORIAL HepG2 Assay for human Signal Transducer and Activator of Transcription 3 (STAT3) (AID 2282963)
# TEST_CONDITIONS: HepG2, Attagene cis-factorial STAT3 reporter transcription; actives raise or lower the signal
Active and inactive are the calls of the source. How the source made its calls: active means hit-call score of the fitted dose curve at least 0.9, where 1 is the maximum; inactive means score below 0.9.
// one of class 1 for active, class 0 for inactive, no free text

See these solved cases before continuing.
INSERT INTO measurements (compound, class_name) VALUES
  ('CCCCCCCCC(CO)CCCCCC (centres undefined)', 'class 1'),
  ('CCCCCCCCCCCCc1ccc(O)cc1', 'class 0'),
  ('CC(C)=NNC(N)=S', 'class 0');

Input: // return assay outcome for `NNS(=O)(=O)c1ccc(Oc2ccc(S(=O)(=O)NN)cc2)cc1`
Output: class 0

Input: Record: CCC1COC(=O)O1 (centres undefined)
Output: class 0

Input: Record: `O=C(OCc1ccccc1)c1ccc(O)cc1`
Output: class 0

Input: Record: `CC(C)(O)Cc1ccccc1`
Output: class 0

Input: Record: `CC(C)OC(=O)c1ccccc1`
Output: class 0

Input: Record: `C[Si]1(C)O[Si](C)(C)O[Si](C)(C)O[Si](C)(C)O[Si](C)(C)O1`
Output: class 0

Input: Record: `C[Si](C)(C)N[Si](C)(C)C`
Output: class 0

Input: Record: `CC/C=C\C/C=C\C/C=C\CCCCCCCC(=O)OC`
Output: class 0

Input: Record: `COC(C=C(C)CCC=C(C)C)OC`
Output: class 0

Input: Record: CC(CC=O)CC(C)(C)C (centres undefined)
Output: class 0

Input: Record: `CC(=O)OC/C=C(/C)CCC=C(C)C`
Output: class 0

Input: Record: `CCCCCCCOC(=O)c1ccc(O)cc1`
Output: class 0

Input: Record: `Nc1ccc(C(=O)OCCCOC(=O)c2ccc(N)cc2)cc1`
Output: class 0

The reported measurements were obtained from PubChem BioAssay (EPA / NIEHS).
